System: HepG2 cell line
Assay: MTT cytotoxicity assay, HepG2
Type: cell-based, human
Settings: MTT assay; mean ± SD of three experiments
measured-property: pIC50
One number for each entry, as −log10 of the molar value.

INSERT INTO results (compound, measured_number) VALUES
  ('O=C1Nc2ccccc2C1=Nc1ccc(C(=O)NNC(=S)Nc2ccccc2)cc1 [Compound 17a]', 5.95);

Let us examine a further case.
Q) Reported pIC50, compound O=C1Nc2ccccc2C1=Nc1ccc(-c2n[nH]c(=S)o2)cc1 [Compound 15a] : ____
A) 5.64

====

Assignment: determine reported melting point for the given compounds.

# example entries with known answers
INSERT INTO assay_data (compound, measured_property, result) VALUES
  ('O=C1Nc2ccc(F)cc2C1=Nc1ccc(-c2n[nH]c(=S)o2)cc1 [Compound 15b]', 'melting point', '231 to 233 °C'),
  ('O=C1Nc2ccccc2C1=Nc1ccc(-c2n[nH]c(=S)o2)cc1 [Compound 15a]', 'melting point', '219 to 220 °C'),
  ('CCOC(=O)CC(C)=NNC(=O)c1ccc(N=C2C(=O)Nc3ccc(F)cc32)cc1 [Compound 14b]', 'melting point', '213 to 215 °C'),
  ('COc1ccc(C=NNC(=O)c2ccc(N=C3C(=O)Nc4ccccc43)cc2)cc1 [Compound 10e]', 'melting point', '239 to 240 °C');

Return reported melting point values for all items listed beneath this line.
1. O=C1Nc2ccc(F)cc2C1=Nc1ccc(C(=O)NNC(=S)Nc2ccccc2)cc1 [Compound 17b]
2. O=C1Nc2ccc(F)cc2C1=Nc1ccc(C(=O)NN=Cc2ccc(Br)cc2)cc1 [Compound 10g]
3. O=C1Nc2ccccc2C1=Nc1ccc(C(=O)NN=Cc2ccc(Cl)cc2)cc1 [Compound 10b]
4. O=C1Nc2ccc(F)cc2C1=Nc1ccc(C(=O)NN2C(=O)c3ccccc3C2=O)cc1 [Compound 12b]
5. O=C1Nc2ccccc2C1=Nc1ccc(C(=O)NN=Cc2ccc([N+](=O)[O-])cc2)cc1 [Compound 10a]
6. CN(C)c1ccc(C=NNC(=O)c2ccc(N=C3C(=O)Nc4ccc(F)cc43)cc2)cc1 [Compound 10f]
7. CNC(=S)NNC(=O)c1ccc(N=C2C(=O)Nc3ccc(F)cc32)cc1 [Compound 5b]

A)
1: 203 to 205 °C; 2: 227 to 229 °C; 3: 237 to 239 °C; 4: 225 to 227 °C; 5: 220 to 222 °C; 6: 202 to 204 °C; 7: 252 to 254 °C

====

System: MCF-7 cell line
Test: MTT cytotoxicity assay, MCF-7
Format: cell-based, human
Settings: Homo sapiens, MCF7; MTT assay; mean ± SD of three experiments
Hi all, reminder that labels come from IC50, split as group 1 = under 6 µM, group 2 = from 6 µM up to 30 µM, group 3 = 30 µM and over

INSERT INTO measurements (compound, discrete_label) VALUES
  ('CNC(=S)NNC(=O)c1ccc(N=C2C(=O)Nc3ccccc32)cc1', 'group 2'),
  ('O=C1Nc2ccc(F)cc2C1=Nc1ccc(C(=O)NNC(=S)Nc2ccccc2)cc1 [Compound 17b]', 'group 2'),
  ('COc1ccc(C=NNC(=O)c2ccc(N=C3C(=O)Nc4ccccc43)cc2)cc1 [Compound 10e]', 'group 1'),
  ('O=C1Nc2ccc(F)cc2/C1=N/c1ccc(C(=O)O)cc1', 'group 3'),
  ('CCN(CC)CCNC(=O)c1c(C)[nH]c(/C=C2\C(=O)Nc3ccc(F)cc32)c1C [Sunitinib, reference compound]', 'group 1'),
  ('CCOC(=O)CC(C)=NNC(=O)c1ccc(N=C2C(=O)Nc3ccc(F)cc32)cc1 [Compound 14b]', 'group 3'),
  ('CN(C)c1ccc(C=NNC(=O)c2ccc(N=C3C(=O)Nc4ccc(F)cc43)cc2)cc1 [Compound 10f]', 'group 2'),
  ('NNC(=O)c1ccc(/N=C2\C(=O)Nc3ccccc32)cc1', 'group 2');

Please turn your attention to the following entry.
Q) Assign a bin to Cc1ccc(C=NNC(=O)c2ccc(N=C3C(=O)Nc4ccccc43)cc2)cc1 [Compound 10d]
A) group 2
